Attribution: ChEMBL document CHEMBL3351476

Test: Volume of distribution at steady state in beagle dog at 1 mg/kg, iv as infusion and 3 mg/kg, po
Format: ADME, organism-based, Canis lupus familiaris
Details: in vivo, read-out: Vdss
Property Measured: Vd (L/kg)
Answers are plain numbers, in L/kg.

Value of measured Vd for the entry "CC(=O)N1c2ccc(-c3ccc(C(=O)O)cc3)cc2[C@H](Nc2ccc(Cl)cc2)C[C@@H]1C" : 0.8

---

Biological target: Bromodomain-containing protein 3 (Homo sapiens, UniProt Q15059)
Experiment: Inhibition of human BRD3 bromodomain 1 by BROMOscan assay
Property Measured: IC50
Include the unit right after the number.

Reported IC50 (Bromodomain-containing protein 3 (Homo sapiens, UniProt Q15059)) for entry "CC(=O)N1c2ccc(-c3ccc(C(=O)O)cc3)cc2[C@H](Nc2ccc(Cl)cc2)C[C@@H]1C" is 0.631 nM

---

So I've got IC50 readings for UniProt:P05177, take a look.
Sequence (P05177 whole entry): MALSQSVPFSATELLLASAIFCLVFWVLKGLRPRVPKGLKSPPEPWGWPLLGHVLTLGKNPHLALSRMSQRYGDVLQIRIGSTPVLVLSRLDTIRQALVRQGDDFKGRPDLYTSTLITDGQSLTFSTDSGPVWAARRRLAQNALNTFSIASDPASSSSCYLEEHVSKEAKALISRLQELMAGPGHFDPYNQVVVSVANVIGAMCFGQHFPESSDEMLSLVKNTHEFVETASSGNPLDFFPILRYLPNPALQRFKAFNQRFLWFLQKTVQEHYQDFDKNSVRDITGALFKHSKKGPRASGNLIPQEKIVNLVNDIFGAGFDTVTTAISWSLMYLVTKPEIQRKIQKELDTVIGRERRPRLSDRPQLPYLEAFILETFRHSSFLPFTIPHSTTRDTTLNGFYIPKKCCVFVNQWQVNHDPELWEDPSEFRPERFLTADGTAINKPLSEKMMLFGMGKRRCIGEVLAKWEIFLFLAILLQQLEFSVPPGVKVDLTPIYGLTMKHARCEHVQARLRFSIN

> print(dat)
                              record.smiles  recorded.value
1  CC(=O)N1c2ccc(-c3ccc(C(=O)O)cc3)cc2[C@H](Nc2ccc(Cl)cc2)C[C@@H]1C         > 33 µM

Value of measured IC50 for the entry "CC(=O)N1c2ccc(-c3ccc(CN4CCCCC4)cc3)cc2[C@H](Nc2ccccc2)C[C@@H]1C" : > 33 µM

---

Molecular target: Histone acetyltransferase p300 (Homo sapiens)
Sequence (Q09472 whole entry): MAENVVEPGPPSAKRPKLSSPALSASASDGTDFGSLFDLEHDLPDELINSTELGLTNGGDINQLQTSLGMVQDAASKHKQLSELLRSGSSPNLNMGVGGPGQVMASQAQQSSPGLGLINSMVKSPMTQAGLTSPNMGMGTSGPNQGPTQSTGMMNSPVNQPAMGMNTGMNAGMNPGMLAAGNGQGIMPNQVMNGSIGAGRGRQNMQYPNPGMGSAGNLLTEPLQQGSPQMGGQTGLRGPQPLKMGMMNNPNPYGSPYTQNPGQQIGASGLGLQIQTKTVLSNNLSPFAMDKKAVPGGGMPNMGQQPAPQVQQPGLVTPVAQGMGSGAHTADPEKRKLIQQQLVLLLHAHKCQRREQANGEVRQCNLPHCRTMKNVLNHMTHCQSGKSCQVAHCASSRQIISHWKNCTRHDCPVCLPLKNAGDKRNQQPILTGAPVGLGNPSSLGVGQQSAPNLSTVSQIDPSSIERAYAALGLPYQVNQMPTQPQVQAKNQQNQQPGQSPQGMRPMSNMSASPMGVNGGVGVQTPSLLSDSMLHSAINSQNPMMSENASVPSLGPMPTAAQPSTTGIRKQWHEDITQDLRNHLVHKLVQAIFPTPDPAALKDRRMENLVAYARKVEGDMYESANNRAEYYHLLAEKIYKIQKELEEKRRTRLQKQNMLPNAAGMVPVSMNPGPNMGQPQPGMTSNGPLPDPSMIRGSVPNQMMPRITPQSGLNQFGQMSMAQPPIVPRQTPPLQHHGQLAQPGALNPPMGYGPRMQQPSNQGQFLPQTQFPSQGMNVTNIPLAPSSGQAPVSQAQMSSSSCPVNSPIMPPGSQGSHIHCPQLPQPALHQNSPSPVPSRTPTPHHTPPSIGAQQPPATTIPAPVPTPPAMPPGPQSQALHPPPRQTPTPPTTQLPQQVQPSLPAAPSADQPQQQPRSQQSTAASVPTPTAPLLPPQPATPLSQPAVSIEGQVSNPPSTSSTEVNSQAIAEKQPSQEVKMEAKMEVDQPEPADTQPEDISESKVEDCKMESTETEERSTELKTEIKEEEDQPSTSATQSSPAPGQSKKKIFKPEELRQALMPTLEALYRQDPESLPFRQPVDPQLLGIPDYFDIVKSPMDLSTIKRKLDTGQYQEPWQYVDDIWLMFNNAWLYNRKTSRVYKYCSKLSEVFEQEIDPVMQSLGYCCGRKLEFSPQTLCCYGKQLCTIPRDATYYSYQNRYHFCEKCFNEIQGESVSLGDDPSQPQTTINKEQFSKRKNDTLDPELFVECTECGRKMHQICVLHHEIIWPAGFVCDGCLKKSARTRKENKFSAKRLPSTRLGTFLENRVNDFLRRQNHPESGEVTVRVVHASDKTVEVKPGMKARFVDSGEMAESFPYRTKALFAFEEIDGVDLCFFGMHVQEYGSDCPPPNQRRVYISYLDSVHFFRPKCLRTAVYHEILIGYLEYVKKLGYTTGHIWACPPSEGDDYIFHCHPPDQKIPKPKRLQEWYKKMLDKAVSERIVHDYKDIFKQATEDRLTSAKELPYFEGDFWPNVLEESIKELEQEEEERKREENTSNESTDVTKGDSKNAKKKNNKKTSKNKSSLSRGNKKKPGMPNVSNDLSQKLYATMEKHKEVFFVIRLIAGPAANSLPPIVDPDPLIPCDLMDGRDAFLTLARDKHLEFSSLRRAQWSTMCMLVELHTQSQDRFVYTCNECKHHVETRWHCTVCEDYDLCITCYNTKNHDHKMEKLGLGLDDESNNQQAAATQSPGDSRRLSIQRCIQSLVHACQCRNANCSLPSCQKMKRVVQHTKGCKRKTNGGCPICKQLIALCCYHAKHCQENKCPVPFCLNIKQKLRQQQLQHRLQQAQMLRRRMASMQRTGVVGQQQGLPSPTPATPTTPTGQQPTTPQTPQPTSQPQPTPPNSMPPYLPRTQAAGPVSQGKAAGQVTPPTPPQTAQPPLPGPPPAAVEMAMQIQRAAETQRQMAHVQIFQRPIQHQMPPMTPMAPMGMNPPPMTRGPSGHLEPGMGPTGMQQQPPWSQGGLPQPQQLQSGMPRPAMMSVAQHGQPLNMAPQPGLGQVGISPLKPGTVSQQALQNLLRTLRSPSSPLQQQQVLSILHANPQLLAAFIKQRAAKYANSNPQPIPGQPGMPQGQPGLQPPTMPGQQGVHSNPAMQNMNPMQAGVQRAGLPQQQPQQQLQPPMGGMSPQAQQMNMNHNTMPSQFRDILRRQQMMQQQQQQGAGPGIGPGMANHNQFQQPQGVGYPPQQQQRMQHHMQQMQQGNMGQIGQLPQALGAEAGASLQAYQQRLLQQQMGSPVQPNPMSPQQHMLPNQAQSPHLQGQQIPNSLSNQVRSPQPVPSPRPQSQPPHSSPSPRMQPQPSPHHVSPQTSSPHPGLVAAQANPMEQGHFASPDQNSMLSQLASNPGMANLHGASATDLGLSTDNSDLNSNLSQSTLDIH
Experiment: Inhibition of human EP300 by BROMOscan assay
Property Measured: pIC50
Numbers only, as −log10 of the molar value.

Value of measured pIC50 for the entry "CC(=O)N1c2ccc(-c3ccc(C(=O)O)cc3)cc2[C@H](Nc2ccc(Cl)cc2)C[C@@H]1C" : 4.50

---

Molecular target: Chromatin remodeling regulator CECR2 (Homo sapiens)
Assay: Inhibition of human CECR2 by BROMOscan assay
pIC50: −log10 of the molar value.
Property Measured: pIC50

Value of measured pIC50 for the entry "CC(=O)N1c2ccc(-c3ccc(C(=O)O)cc3)cc2[C@H](Nc2ccc(Cl)cc2)C[C@@H]1C" : < 4.50

---

Experiment: Oral bioavailability in rat at 3 mg/kg
Assay type: ADME, organism-based
Conditions: in vivo
Property Measured: bioavailability
Include the unit right after the number.

Value of measured bioavailability for the entry "CC(=O)N1c2ccc(-c3ccc(C(=O)O)cc3)cc2[C@H](Nc2ccc(Cl)cc2)C[C@@H]1C" : 28%

---

Assay: Volume of distribution at steady state in Balb/c mouse at 10 mg/kg, iv as bolus dose
Type: ADME, organism-based
Parameters: dose 10 mg/kg, route intravenous
Conditions: in vivo, read-out: Vdss
Property Measured: Vd (L/kg)
Give bare numbers, in L/kg.

Value of measured Vd for the entry "CC(=O)N1c2ccc(-c3ccc(C(=O)O)cc3)cc2[C@H](Nc2ccc(Cl)cc2)C[C@@H]1C" : 0.48

---

Molecular target: Cytochrome P450 2C19 (Homo sapiens, UniProt P33261)
Sequence (P33261 whole entry): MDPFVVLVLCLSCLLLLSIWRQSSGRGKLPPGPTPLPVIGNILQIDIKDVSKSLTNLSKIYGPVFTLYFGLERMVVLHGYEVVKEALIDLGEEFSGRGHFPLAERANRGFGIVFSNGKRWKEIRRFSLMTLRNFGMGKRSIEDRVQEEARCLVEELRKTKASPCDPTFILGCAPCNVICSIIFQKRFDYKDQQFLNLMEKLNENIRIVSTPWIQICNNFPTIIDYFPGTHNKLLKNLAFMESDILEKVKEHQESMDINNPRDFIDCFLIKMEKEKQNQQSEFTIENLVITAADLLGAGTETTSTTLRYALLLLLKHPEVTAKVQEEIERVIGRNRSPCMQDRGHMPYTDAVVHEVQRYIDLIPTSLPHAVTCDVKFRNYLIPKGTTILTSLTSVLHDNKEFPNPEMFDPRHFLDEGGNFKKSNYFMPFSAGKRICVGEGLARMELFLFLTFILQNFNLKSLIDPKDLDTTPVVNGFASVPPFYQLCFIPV
Property Measured: IC50 (µM)
One number for each entry, in µM.

Reported IC50 (Cytochrome P450 2C19 (Homo sapiens, UniProt P33261)) for entry "CC(=O)N1c2ccc(-c3ccc(C(=O)O)cc3)cc2[C@H](Nc2ccc(Cl)cc2)C[C@@H]1C" is 12

---

Biological target: Transcription intermediary factor 1-alpha (Homo sapiens)
Sequence (O15164 whole entry): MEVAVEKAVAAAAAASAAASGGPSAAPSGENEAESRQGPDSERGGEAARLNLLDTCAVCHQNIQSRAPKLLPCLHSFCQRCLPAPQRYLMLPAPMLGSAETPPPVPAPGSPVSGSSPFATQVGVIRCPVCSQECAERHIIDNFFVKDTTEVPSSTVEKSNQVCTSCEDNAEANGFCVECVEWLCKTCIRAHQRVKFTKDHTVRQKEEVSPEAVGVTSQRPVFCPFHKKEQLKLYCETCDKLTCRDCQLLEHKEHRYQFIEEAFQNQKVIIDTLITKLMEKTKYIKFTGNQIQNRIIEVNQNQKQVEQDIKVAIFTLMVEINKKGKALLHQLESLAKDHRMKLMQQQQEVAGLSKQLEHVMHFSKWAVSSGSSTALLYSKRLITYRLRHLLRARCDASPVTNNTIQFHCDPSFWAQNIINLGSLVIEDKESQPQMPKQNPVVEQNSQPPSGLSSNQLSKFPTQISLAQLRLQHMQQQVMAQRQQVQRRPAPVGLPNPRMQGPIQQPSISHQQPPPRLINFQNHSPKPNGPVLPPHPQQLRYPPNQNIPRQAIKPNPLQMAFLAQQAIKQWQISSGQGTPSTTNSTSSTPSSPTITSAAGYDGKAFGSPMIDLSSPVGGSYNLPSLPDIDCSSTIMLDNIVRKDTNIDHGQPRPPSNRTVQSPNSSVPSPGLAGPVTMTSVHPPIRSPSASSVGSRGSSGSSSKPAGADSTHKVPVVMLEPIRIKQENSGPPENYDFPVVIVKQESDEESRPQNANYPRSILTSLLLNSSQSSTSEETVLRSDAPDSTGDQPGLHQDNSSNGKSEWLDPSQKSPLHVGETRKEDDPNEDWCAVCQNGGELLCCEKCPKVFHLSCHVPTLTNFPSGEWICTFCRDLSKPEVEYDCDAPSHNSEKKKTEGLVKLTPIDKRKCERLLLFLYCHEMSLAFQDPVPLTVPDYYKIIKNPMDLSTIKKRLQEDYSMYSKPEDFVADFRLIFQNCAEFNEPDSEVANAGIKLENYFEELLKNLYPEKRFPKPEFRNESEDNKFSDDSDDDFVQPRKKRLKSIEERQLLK
Test: Inhibition of human TIF1alpha PHD/bromodomain by BROMOscan assay
Property Measured: pIC50
Give bare numbers, as −log10 of the molar value.

Value of measured pIC50 for the entry "CC(=O)N1c2ccc(-c3ccc(C(=O)O)cc3)cc2[C@H](Nc2ccc(Cl)cc2)C[C@@H]1C" : 4.80

---

Test system: Hepatocyte
Assay: Clearance in human hepatocytes assessed per gram of tissue at 1 uM by LC-MS/MS analysis
Assay type: ADME, cell-based
Property Measured: CLH (mL/min/g)
Numbers only, in mL/min/g.

Value of measured CLH for the entry "CC(=O)N1c2ccc(-c3ccc(CN4CCCCC4)cc3)cc2[C@H](Nc2ccccc2)C[C@@H]1C" : 1.8

---

For each record, write down the corresponding pIC50.
Biological target: Bromodomain-containing protein 3 (Homo sapiens)
Assay: Displacement of biotinylated tetra-acetylated histone H4 from His6-tagged BRD3 (1 to 475 aa) (unknown origin) after 1 hr by TR-FRET assay
Numbers only, as −log10 of the molar value.

> print(dat)
                                   molecule  property.measured  recorded.value
1  CC(=O)N1c2ccc(-c3ccc(C(N)=O)cc3)cc2[C@H](Nc2ccc(Cl)cc2)C[C@@H]1C (racemic)              pIC50            6.40
2  COc1ccccc1N[C@@H]1C[C@H](C)N(C(C)=O)c2ccc(-c3ccc(C(=O)O)cc3)cc21 (racemic)              pIC50            6.30

Here's the next entry for you.
Value of measured pIC50 for the entry CC(=O)N1c2ccc(-c3ccc(CN4CCCCC4)cc3)cc2[C@H](NC=O)C[C@@H]1C (racemic) : 5.20

---

Target: Bromodomain-containing protein 3 (Homo sapiens)
Test: Displacement of biotinylated tetra-acetylated histone H4 from His6-tagged BRD3 (1 to 475 aa) (unknown origin) after 1 hr by TR-FRET assay
pIC50: −log10 of the molar value.
Assign class by pIC50: not lower than 6 means 1.0; lower than 6 means 0.0.

Query: Hello, I need to know if "CC(=O)N1c2ccc(-c3ccc(CN4CCCCC4)cc3)cc2[C@@H](Nc2ccccc2)C[C@H]1C" has measured pIC50 not below 6. Thanks!
Result: 0.0

---

Target: Bromodomain-containing protein 2 (Homo sapiens)
Sequence (P25440 whole entry): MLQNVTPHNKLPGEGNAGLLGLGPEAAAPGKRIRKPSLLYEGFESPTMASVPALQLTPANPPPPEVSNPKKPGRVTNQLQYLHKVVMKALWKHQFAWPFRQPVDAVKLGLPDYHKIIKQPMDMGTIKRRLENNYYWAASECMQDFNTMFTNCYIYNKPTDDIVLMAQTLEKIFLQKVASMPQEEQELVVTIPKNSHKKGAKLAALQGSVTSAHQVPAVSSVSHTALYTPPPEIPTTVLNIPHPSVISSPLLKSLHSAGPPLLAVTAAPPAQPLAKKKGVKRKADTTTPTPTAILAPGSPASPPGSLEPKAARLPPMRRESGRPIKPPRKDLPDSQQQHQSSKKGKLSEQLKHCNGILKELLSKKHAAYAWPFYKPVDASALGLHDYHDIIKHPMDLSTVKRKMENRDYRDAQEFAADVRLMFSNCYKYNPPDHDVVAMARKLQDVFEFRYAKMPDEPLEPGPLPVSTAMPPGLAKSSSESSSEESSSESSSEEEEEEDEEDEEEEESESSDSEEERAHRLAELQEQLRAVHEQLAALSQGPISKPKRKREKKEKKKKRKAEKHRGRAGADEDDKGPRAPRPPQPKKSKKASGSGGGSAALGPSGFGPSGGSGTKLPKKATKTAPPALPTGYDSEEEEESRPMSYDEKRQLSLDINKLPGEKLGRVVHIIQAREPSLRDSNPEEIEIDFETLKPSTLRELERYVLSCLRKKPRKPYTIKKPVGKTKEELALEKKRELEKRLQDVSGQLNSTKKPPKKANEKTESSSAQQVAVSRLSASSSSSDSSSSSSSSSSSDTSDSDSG
Assay: Inhibition of human BRD2 bromodomain 1 by BROMOscan assay
Property Measured: IC50

Value of measured IC50 for the entry "CC(=O)N1c2ccc(-c3ccc(C(=O)O)cc3)cc2[C@H](Nc2ccc(Cl)cc2)C[C@@H]1C" : > 31.6 µM

---

Test: Volume of distribution at steady state in rat at 1 mg/kg, iv as infusion and 3 mg/kg, po
Assay type: ADME, organism-based
Settings: in vivo, read-out: Vdss
Property Measured: Vd
Include the unit right after the number.

Value of measured Vd for the entry "CC(=O)N1c2ccc(-c3ccc(C(=O)O)cc3)cc2[C@H](Nc2ccc(Cl)cc2)C[C@@H]1C" : 2 L/kg

---

Molecular target: Cytochrome P450 2C9 (Homo sapiens, UniProt P11712)
Sequence (P11712 whole entry): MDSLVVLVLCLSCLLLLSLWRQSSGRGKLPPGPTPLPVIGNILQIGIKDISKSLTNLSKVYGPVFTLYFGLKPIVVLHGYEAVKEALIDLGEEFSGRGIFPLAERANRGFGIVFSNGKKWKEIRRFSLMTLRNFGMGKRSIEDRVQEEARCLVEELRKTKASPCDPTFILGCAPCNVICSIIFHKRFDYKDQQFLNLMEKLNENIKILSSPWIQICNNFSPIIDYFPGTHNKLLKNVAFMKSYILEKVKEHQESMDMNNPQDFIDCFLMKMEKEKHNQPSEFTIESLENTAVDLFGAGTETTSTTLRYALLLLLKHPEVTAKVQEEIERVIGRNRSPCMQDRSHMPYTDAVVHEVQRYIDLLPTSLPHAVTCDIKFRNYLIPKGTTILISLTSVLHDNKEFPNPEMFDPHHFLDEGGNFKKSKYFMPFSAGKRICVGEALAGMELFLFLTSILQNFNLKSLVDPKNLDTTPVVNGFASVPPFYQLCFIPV
Property Measured: pIC50
Give bare numbers, as −log10 of the molar value.

> print(dat)
                              record.smiles  property.measured  recorded.value
1  CC(=O)N1c2ccc(-c3ccc(C(=O)O)cc3)cc2[C@H](Nc2ccc(Cl)cc2)C[C@@H]1C              pIC50            4.89

Here's the next entry for you.
Value of measured pIC50 for the entry "CC(=O)N1c2ccc(-c3ccc(CN4CCCCC4)cc3)cc2[C@H](Nc2ccccc2)C[C@@H]1C" : 4.85
